# System Name: wild type mCOX-2 (Mus musculus)
# Assay Overview: Kinetics of time-dependent COX inhibition
# Setup Conditions: time-dependent inhibition
Experimental Readout: Ki
Please append the unit to your numeric answer.

Given COc1ccc2c(c1)c(CC(=O)O)cn2C(=O)c1ccc(Cl)cc1 , state its recorded Ki.
26 µM

----------
# System Name: wild type mCOX-2 (Mus musculus)
# Assay Overview: Time-dependent IC50 COX inhibition assay
# Setup Conditions: 20 min pre-incubation, then 50 μM AA for 30 s
Experimental Readout: pIC50
Give only the number. pIC50 is defined as minus log10 of concentration in molar units.

I would be grateful if you could share the reported pIC50 for COc1ccc2c(c1)c(CC(=O)O)cn2C(=O)c1ccc(Cl)cc1 [DM-INDO, 2-Des-methylindomethacin] .
5.40

----------
# System Name: mCOX-2^V349I (Mus musculus, UniProt Q05769, V335I)
# Sequence (Q05769 18-604 V335I): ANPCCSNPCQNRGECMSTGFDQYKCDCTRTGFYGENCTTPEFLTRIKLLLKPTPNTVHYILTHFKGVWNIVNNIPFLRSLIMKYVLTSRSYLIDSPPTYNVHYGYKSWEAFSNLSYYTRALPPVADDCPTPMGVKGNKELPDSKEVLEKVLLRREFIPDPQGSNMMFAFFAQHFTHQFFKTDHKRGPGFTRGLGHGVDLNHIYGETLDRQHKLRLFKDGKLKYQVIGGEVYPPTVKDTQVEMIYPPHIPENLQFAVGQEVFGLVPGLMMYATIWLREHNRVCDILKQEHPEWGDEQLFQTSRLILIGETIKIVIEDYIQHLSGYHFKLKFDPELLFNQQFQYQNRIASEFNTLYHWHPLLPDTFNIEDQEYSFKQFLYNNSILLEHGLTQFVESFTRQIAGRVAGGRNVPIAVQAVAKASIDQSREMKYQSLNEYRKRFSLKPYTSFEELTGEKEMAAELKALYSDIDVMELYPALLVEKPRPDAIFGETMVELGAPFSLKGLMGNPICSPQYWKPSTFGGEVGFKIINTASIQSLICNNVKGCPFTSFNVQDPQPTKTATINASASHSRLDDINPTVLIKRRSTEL
# Assay Overview: Steady-state quenching of COX intrinsic fluorescence (apo-protein)
# Setup Conditions: fluorescence quenching
# Protocol: Steady-state measurements were performed at 37° C. in a 3.5 ml fluorescence cuvette with continuous stirring. […] Data were collected over 240 or 360 seconds with 2-second integration times. The reversibility of quenching was analyzed in the same manner, with subsequent addition of 50 μM AA as competitor. […] This assay provided a method to directly monitor the binding of INDO and DM-INDO to COXs. […] The kinetic data for quenching were analyzed in the same manner as those for inhibition. […]
Experimental Readout: pKd
As a rule, pKd stands for the negative log10 of the concentration, concentration in M.

Which pKd value is on record for COc1ccc2c(c1)c(CC(=O)O)cn2C(=O)c1ccc(Cl)cc1 ?
4.92

----------
# System Name: mCOX-2^V349A (Mus musculus, UniProt Q05769, V335A)
# Assay Overview: Time-dependent IC50 COX inhibition assay
# Setup Conditions: 20 min pre-incubation, then 50 μM AA for 30 s
# Protocol: These mutated genes were used to assemble baculoviral constructs for large-scale expression in Sf9 cells. Purification of the expressed COX-2 protein was performed through traditional cellular fractionation and classical column chromatography. […] Maximal reaction velocity data were obtained from the linear portion of the oxygen uptake curves, and the data were analyzed by nonlinear regression with Prism 4.0 (GraphPad Software, San Diego, Calif., United States of America). […]
Experimental Readout: IC50

Using the record for COc1ccc2c(c1)c(CC(=O)O)cn2C(=O)c1ccc(Cl)cc1 , report its IC50.
> 16 µM
